Experiment: Inhibition of sheep gastric H(+)/K(+)-ATPase-mediated inorganic phosphate liberation after 15 mins by Fiske Subbarow method in presence of ATP
Assay type: tissue-based, Ovis aries, Stomach
Conditions: read-out: IC50
pIC50: −log10 of the molar value.
observation type: pIC50

Some molecules with recorded pIC50:
COc1cccc(NC(=O)NC(CCC(=O)N2CCN(c3nsc4ccccc34)CC2)C(=O)N2CCN(c3nsc4ccccc34)CC2)c1 (configuration not stated): 4.96
COc1ccc2[nH]c([S+]([O-])Cc3ncc(C)c(OC)c3C)nc2c1 (configuration not stated) [OMEPRAZOLE]: 4.08
O=C(CCC(NC(=S)Nc1cccc(Cl)c1)C(=O)N1CCN(c2nsc3ccccc23)CC1)N1CCN(c2nsc3ccccc23)CC1 (configuration not stated): 4.22
O=C(Nc1ccccc1)NC(CCC(=O)N1CCN(c2nsc3ccccc23)CC1)C(=O)N1CCN(c2nsc3ccccc23)CC1 (configuration not stated): 4.03

(1) O=C(Nc1cccc(F)c1)NC(CCC(=O)N1CCN(c2nsc3ccccc23)CC1)C(=O)N1CCN(c2nsc3ccccc23)CC1 (configuration not stated)
(2) COc1ccccc1NC(=S)NC(CCC(=O)N1CCN(c2nsc3ccccc23)CC1)C(=O)N1CCN(c2nsc3ccccc23)CC1 (configuration not stated)
(3) COc1ccc(NC(=O)NC(CCC(=O)N2CCN(c3nsc4ccccc34)CC2)C(=O)N2CCN(c3nsc4ccccc34)CC2)cc1 (configuration not stated)
(Q) Rank by pIC50 (largest to smallest). Answer by writing out the labels in the requested order.
(A) 3, 2, 1

----------
Test: Inhibition of sheep gastric H(+)/K(+)-ATPase-mediated inorganic phosphate liberation after 15 mins by Fiske Subbarow method in presence of ATP
Format: tissue-based, Ovis aries, Stomach
Conditions: read-out: IC50
pIC50: −log10 of the molar value.
observation type: pIC50

The following compounds have reported results that may help.
O=C(CCC(NC(=S)Nc1ccccc1Br)C(=O)N1CCN(c2nsc3ccccc23)CC1)N1CCN(c2nsc3ccccc23)CC1 (stereo not given): 4.36
O=C(CCC(NC(=S)Nc1ccccc1)C(=O)N1CCN(c2nsc3ccccc23)CC1)N1CCN(c2nsc3ccccc23)CC1 (stereo not given): 4.05
O=C(Nc1cccc(Br)c1)NC(CCC(=O)N1CCN(c2nsc3ccccc23)CC1)C(=O)N1CCN(c2nsc3ccccc23)CC1 (stereo not given): 4.30
COc1ccccc1NC(=O)NC(CCC(=O)N1CCN(c2nsc3ccccc23)CC1)C(=O)N1CCN(c2nsc3ccccc23)CC1 (stereo not given): 4.72
O=C(Nc1ccc(F)cc1)NC(CCC(=O)N1CCN(c2nsc3ccccc23)CC1)C(=O)N1CCN(c2nsc3ccccc23)CC1 (stereo not given): 4.14
O=C(CCC(NC(=S)Nc1ccccc1F)C(=O)N1CCN(c2nsc3ccccc23)CC1)N1CCN(c2nsc3ccccc23)CC1 (stereo not given): 4.13
O=C(Nc1ccc(Br)cc1)NC(CCC(=O)N1CCN(c2nsc3ccccc23)CC1)C(=O)N1CCN(c2nsc3ccccc23)CC1 (stereo not given): 4.34
O=C(CCC(NC(=S)Nc1cccc(Br)c1)C(=O)N1CCN(c2nsc3ccccc23)CC1)N1CCN(c2nsc3ccccc23)CC1 (stereo not given): 4.32
O=C(CCC(NC(=S)Nc1ccc(Cl)cc1)C(=O)N1CCN(c2nsc3ccccc23)CC1)N1CCN(c2nsc3ccccc23)CC1 (stereo not given): 4.27
O=C(CCC(NC(=S)Nc1ccc(F)cc1)C(=O)N1CCN(c2nsc3ccccc23)CC1)N1CCN(c2nsc3ccccc23)CC1 (stereo not given): 4.15

(P) COc1cccc(NC(=S)NC(CCC(=O)N2CCN(c3nsc4ccccc34)CC2)C(=O)N2CCN(c3nsc4ccccc34)CC2)c1 (stereo not given)
(Q) O=C(Nc1ccccc1F)NC(CCC(=O)N1CCN(c2nsc3ccccc23)CC1)C(=O)N1CCN(c2nsc3ccccc23)CC1 (stereo not given)
(Q) // select label with min value of measured pIC50 from [ P , Q ] Write down the label attached to your selection.
(A) Q
